Reference for the values: patent US20260085067A1

Examples of compounds with documented pIC50 follow.
# System: pCHK1 (S345) in Colo320 DM cells
# Test Method Notes: Alphalisa assay, detection of pCHK1 (S345) in Colo320 DM cells
# Assay type: cell-based, human
# Measurement Setup: Homo sapiens, COLO 320DM, compound overnight (approximately 16 hours)
pIC50: −log10 of the molar value.

Worked set:
1) COCCN1CN([C@H](c2n[nH]c(=O)o2)[C@H](C)c2c(F)ccc(C)c2C)S(=O)(=O)c2ccc(Cl)cc21 = ≥ 6.00
2) Cc1ccc(F)c([C@@H](C)[C@@H](c2n[nH]c(=O)o2)N2CCOc3cc(Cl)cnc3S2(=O)=O)c1C = 5.30 to 6.00

Can you look up pIC50 on pCHK1 (S345) in Colo320 DM cells for "Cc1ccc(F)c([C@@H](C)[C@@H](c2n[nH]c(=O)o2)N2CN(C)c3cc(Cl)cc(CO)c3S2(=O)=O)c1C" ? ≥ 6.00

pIC50 of "CC(=O)c1cc(Cl)cc2c1S(=O)(=O)N([C@H](c1n[nH]c(=O)o1)[C@H](C)c1c(F)ccc(C)c1C)CN2" on pCHK1 (S345) in Colo320 DM cells? ≥ 6.00

Which pIC50 is reported with pCHK1 (S345) in Colo320 DM cells for this entry: "Cc1cc2c(cc1Cl)OCCN([C@H](c1n[nH]c(=O)o1)[C@H](C)c1c(F)ccc(C)c1C)S2(=O)=O" ? < 4.30

Please provide the recorded pIC50 for Cc1ccc(F)c([C@@H](C)[C@@H](c2n[nH]c(=O)o2)N2CCOc3cc(Cl)ncc3S2(=O)=O)c1C [Example 27] , tested on pCHK1 (S345) in Colo320 DM cells. 4.30 to 5.00

---

# pIC50 listing for each entry below
Target protein (sequence): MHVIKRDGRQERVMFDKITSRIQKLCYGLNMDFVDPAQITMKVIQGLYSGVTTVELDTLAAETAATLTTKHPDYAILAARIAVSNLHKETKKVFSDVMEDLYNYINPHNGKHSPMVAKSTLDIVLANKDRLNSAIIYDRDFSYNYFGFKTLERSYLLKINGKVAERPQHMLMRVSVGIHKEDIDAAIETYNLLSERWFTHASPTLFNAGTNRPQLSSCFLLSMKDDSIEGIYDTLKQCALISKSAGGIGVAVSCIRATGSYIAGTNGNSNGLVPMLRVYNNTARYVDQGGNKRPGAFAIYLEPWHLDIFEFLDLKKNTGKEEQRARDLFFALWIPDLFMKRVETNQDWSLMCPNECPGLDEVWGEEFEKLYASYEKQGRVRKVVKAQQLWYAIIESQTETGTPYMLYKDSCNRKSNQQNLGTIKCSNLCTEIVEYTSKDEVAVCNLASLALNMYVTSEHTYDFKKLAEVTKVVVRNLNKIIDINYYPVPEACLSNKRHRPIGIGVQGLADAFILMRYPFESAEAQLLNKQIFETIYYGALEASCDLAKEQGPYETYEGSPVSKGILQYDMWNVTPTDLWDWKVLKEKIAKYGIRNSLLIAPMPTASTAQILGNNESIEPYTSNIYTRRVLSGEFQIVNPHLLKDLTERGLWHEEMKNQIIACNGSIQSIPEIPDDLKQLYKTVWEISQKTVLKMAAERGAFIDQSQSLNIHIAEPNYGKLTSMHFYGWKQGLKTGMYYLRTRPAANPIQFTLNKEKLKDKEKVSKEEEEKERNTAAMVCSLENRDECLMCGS
pIC50: −log10 of the molar value.

1. Cc1ccc(F)c([C@H](C)[C@@H](c2n[nH]c(=O)o2)N2CN(C)c3cc(Cl)cc(C(=O)N(C)C)c3S2(=O)=O)c1C [Example 39] = 4.00 to 5.00

What does the record list as pIC50 for COCCN1CN([C@H](c2n[nH]c(=O)o2)[C@H](C)c2c(F)ccc(C)c2C)S(=O)(=O)c2ccc(Cl)nc21 [Example 63] ? > 7.70

Fill in the blank: the reported pIC50 of Cc1ccc(F)c([C@@H](C)[C@@H](c2n[nH]c(=O)o2)N2CCOc3c(ccc(Cl)c3[C@@H](C)N(C)C)S2(=O)=O)c1C (single isomer, unassigned) [Example 54] is ____. > 7.70

Sample CC(=O)N1CN([C@H](c2n[nH]c(=O)o2)[C@H](C)c2c(F)ccc(C)c2C)S(=O)(=O)c2ccc(Cl)cc21 [Example 56] — what was its pIC50? > 7.70

Consider the molecule shown here: Cc1ccc(F)c([C@@H](C)[C@@H](c2n[nH]c(=O)o2)N2CN(C)c3c(ccc(Cl)c3C)S2(=O)=O)c1C [Example 32] What is its recorded pIC50? 7.00 to 7.70

Consider the molecule shown here: Cc1ccc(F)c([C@@H](C)[C@@H](c2n[nH]c(=O)o2)N2CN(C3CC3)c3cc(Cl)ccc3S2(=O)=O)c1C [Example 6] What is its recorded pIC50? 7.00 to 7.70

Quick check: pIC50 of Cc1ccc(F)c([C@@H](C)[C@@H](c2n[nH]c(=O)o2)N2CN([C@H]3CCN(CC(F)(F)F)C3)c3cc(Cl)ccc3S2(=O)=O)c1C [Example 101] ? 7.00 to 7.70

Would you mind telling me what pIC50 value was observed for Cc1ccc(F)c([C@@H](C)[C@@H](c2n[nH]c(=O)o2)N2CN(C)c3cc(Cl)ccc3S2(=O)=O)c1C [Example 1] ? > 7.70

---

# System: pCHK1 (S345) in Colo320 DM cells
# Test Method Notes: Alphalisa assay, detection of pCHK1 (S345) in Colo320 DM cells
# Assay type: cell-based, human
# Measurement Setup: Homo sapiens, COLO 320DM, compound overnight (approximately 16 hours)
Attribute Measured: IC50

1) Cc1ccc(F)c([C@@H](C)[C@@H](c2n[nH]c(=O)o2)N2CN([C@@H]3CCN(C)C3)c3cc(Cl)ccc3S2(=O)=O)c1C = ≤ 1 µM
2) Cc1ccc(F)c([C@@H](C)[C@@H](c2n[nH]c(=O)o2)N2CN(CC(C)(C)O)c3cc(Cl)ccc3S2(=O)=O)c1C = ≤ 1 µM
3) Cc1ccc(F)c([C@@H](C)[C@@H](c2n[nH]c(=O)o2)N2CN(CCCO)c3nc(Cl)ccc3S2(=O)=O)c1C = ≤ 1 µM
4) Cc1ccc(F)c([C@H](C)[C@H](c2n[nH]c(=O)o2)N2CN(CC(O)CO)c3cc(Cl)ccc3S2(=O)=O)c1C (mixture of isomers) = 1 to 5 µM
5) Cc1ccc(F)c([C@@H](C)[C@@H](c2n[nH]c(=O)o2)N2CN(C)c3cc(Cl)cc(C(C)O)c3S2(=O)=O)c1C (stereo partly drawn) = ≤ 1 µM

Test system pCHK1 (S345) in Colo320 DM cells; read-out IC50; what value for "Cc1ccc(F)c([C@@H](C)[C@@H](c2n[nH]c(=O)o2)N2CN(S(C)(=O)=O)c3cc(Cl)ccc3S2(=O)=O)c1C" ? 5 to 10 µM

API: value(readout=IC50, system=pCHK1 (S345) in Colo320 DM cells) for record "Cc1ccc(F)c([C@@H](C)[C@@H](c2n[nH]c(=O)o2)N2CCOc3c(ccc(Cl)c3CN(C)C)S2(=O)=O)c1C" 1 to 5 µM

# returns recorded IC50 (system: pCHK1 (S345) in Colo320 DM cells) for Cc1ccc(F)c([C@@H](C)[C@@H](c2n[nH]c(=O)o2)N2C3CCCN3c3cc(Cl)ccc3S2(=O)=O)c1C (stereo partly drawn) 1 to 5 µM

Field: IC50 (pCHK1 (S345) in Colo320 DM cells). Entry: "COC(=O)c1cc(Cl)cc2c1S(=O)(=O)N([C@H](c1n[nH]c(=O)o1)[C@H](C)c1c(F)ccc(C)c1C)CN2C" 1 to 5 µM

Lab note: need IC50 for "Cc1ccc(F)c([C@@H](C)[C@@H](c2n[nH]c(=O)o2)N2CN([C@H]3C[C@@H](O)C3)c3cc(Cl)ccc3S2(=O)=O)c1C" on pCHK1 (S345) in Colo320 DM cells, anyone have it? ≤ 1 µM

---

# Tested on: pCHK1 (S345) in Colo320 DM cells
# Test Method Notes: Alphalisa assay, detection of pCHK1 (S345) in Colo320 DM cells
# Type: cell-based, human
# Measurement Setup: Homo sapiens, COLO 320DM, compound overnight (approximately 16 hours)
# Method: Colo320 DM cells (ATCC #CCL-220, derived from human colorectal adenocarcinoma, Dukes' type C) were seeded on a […], cell culture treated assay plate at a density of 50,000 cells/well in 200 μL of RPMI-1640 media supplemented with 10% Fetal Bovine Serum and incubated at 37° C. overnight. […] Plates were read on an Alpha Technology-compatible plate reader using standard AlphaLisa settings.
Attribute Measured: IC50

Example compounds with recorded IC50:
1. Cc1ccc(F)c([C@@H](C)[C@@H](c2n[nH]c(=O)o2)N2CCOc3cc(Cl)cc(C)c3S2(=O)=O)c1C = > 50000 nM
2. Cc1ccc(F)c([C@@H](C)[C@@H](c2n[nH]c(=O)o2)N2CN(C3CN(CC(F)F)C3)c3cc(Cl)ccc3S2(=O)=O)c1C = ≤ 1000 nM

Note: attention shifts to another entry.
// returns reported IC50 for input "Cc1ccc(F)c([C@@H](C)[C@@H](c2n[nH]c(=O)o2)N2CN(C)c3cc(Cl)cc(CBr)c3S2(=O)=O)c1C" 1000 to 5000 nM
